Target: T1, human 5T4 oncofoetal antigen (human, UniProt Q13641 32-420)
T1 construct: whole, on cells; also called hu 5T4; human 5T4 antigen
T1 sequence (looked up): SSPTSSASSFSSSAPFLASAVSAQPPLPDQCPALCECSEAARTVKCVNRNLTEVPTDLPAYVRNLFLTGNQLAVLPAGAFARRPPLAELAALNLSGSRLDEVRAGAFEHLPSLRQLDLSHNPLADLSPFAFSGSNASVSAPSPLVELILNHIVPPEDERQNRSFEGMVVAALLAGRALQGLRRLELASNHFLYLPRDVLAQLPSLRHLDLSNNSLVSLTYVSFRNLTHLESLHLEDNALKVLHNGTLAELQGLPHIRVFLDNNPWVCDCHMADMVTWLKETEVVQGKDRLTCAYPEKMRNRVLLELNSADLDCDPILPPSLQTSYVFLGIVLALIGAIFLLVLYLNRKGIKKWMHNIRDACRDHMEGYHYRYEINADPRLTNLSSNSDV
Test: flow cytometry, CHOZN cells expressing hu 5T4
Recorded EC50 values for a group of binders are listed next.
Return type: number; implicit unit µg/mL.

- Binder: "chimeric anti-5T4 monoclonal antibody 848 (antibody, human IgG1, V domains shown) VH: QSVEESGGRLVTPGTPLTLTCTVSGFSLSSYTMSWVRQAPGKGLEWIGIISSIGSIWYASWAKGRFTISKTSTTVDLKMTSLTTEDTATYFCARDGTGSKYYTWDRLDLWGQGTLVTVSS VL: NIVMTQTPSPVSGAVGGTVTINCQASQSIYNELSWYQQKPGQPPKLLIYYTSTLASGVSSRFKGSGSGTQFTLTISGVESVDAATYYCQQGYSSSDVDNVFGGGTEVVVK"
  Value unit: "µg/mL"
  EC50: 0.17
- Binder: "chimeric anti-5T4 monoclonal antibody 833 (antibody, IgG1, V domains shown, also called clone 833) VH: QSLEESGGGLVTPGGSLTLTCTGSGIDLSHYVVGWVRQAPGKGLEWIGIIYGSGRTYYANWAKGRFTISKTSTTVDLRIARPTAEDTATYFCARDASVSVYYWGYFDLWGQGTLVTVSS VL: AYDMTQTPVSVEVAVGGTVTIKCQASQSIGSELAWYQQKPGQPPKLLIYRASTLESGVPSRFSGSGSGTEFTLTISGVESADAATYYCQQGYTYSEIDNAFGGGTEVVVK"
  Value unit: "µg/mL"
  EC50: 0.14
- Binder: "chimeric anti-5T4 monoclonal antibody 843 (antibody, human IgG1, V domains shown) VH: QSLEESGGRLVTPGTPLTLTCTASGFSLNNAYMNWVRQAPGKGLEWIGIINTYGSTYFATWAKGRFTFSKTSTTVDLKITSPTTEDTATYFCARAYAPFSTYSHYYGMDLWGPGTLVTVSS VL: DVVMTQTPSSVSAAVGGTVTIKCQASESIGSWLSWYQQKPGQPPKLLIYEASKLTSGVPSRFKGSGSGTEYTLTISDLESADAATYYCQYTDYGSNYLGTFGGGTEVVVK"
  Value unit: "µg/mL"
  EC50: 0.21

Shifting focus to the binder that follows.
Ask: Which measured EC50 value corresponds to chimeric anti-5T4 monoclonal antibody 899 (antibody, human IgG1, V domains shown) VH: QSVEESGGRLVTPGTPLTLTCTVSGFSLSSYTMSWVRQAPGKGLEYIGIISSSDGTWYANWVKGRFTISKTSTTVDLKMTSLTTEDTATYFCARDGTGNKYYTWDRLDLWGQGTLVTVSS VL: NIVMTQTPSPVSGAVGGTVTINCQASQSIYNELSWYQQKPGQPPKLLIYYASTLASGVSSRFKGSGSGTQFTLTISGVESVDAATYYCQQGYSSSNVDNVFGGGTEVVVK ?
Result: 0.17

Hey, just so you know, these numbers are from patent US20210317231A1.
